# Tested on: LNCaP cells;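 note: MTT formazan absorbance at 600 nm read after 72 h of compound exposure, IC50 fitted by nonlinear regression of dose-response curves, samples run in triplicate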
yes (1) if IC50 is below 3 µM. no (0) if not; exact matches included in no (0).

CC1=C(/C=C/C(=O)/C=C/c2ccc(O)c([N+](=O)[O-])c2)C(C)(C)CCC1	no (0)
CC1=C(/C=C/C(=O)/C=C/c2cc(C(F)(F)F)cc(C(F)(F)F)c2)C(C)(C)CCC1	no (0)
CC1=C(/C=C/C(=O)/C=C/c2cc(C(F)(F)F)cc(C(F)(F)F)c2)C(C)(C)CCC1O (racemic)	yes (1)
CC1=C(/C=C/C(=O)/C=C/c2ccc(C(F)(F)F)cc2)C(C)(C)CCC1	no (0)
CC1=CCCC(C)(C)C1/C=C/C(=O)/C=C/c1ccc(C(F)(F)F)cc1 (racemic)	no (0)
CC1=CCCC(C)(C)C1/C=C/C(=O)/C=C/c1cccc([N+](=O)[O-])c1 (racemic)	no (0)
CC1=CCCC(C)(C)C1/C=C/C(=O)/C=C/c1ccccc1F (racemic)	yes (1)
CC1=C(/C=C/C(=O)/C=C/c2ccc(-c3ccccc3)cc2)C(C)(C)CCC1	no (0)

For this compound, is IC50 lower than 3 µM? CC1=CCCC(C)(C)C1/C=C/C(=O)/C=C/c1cc(C(F)(F)F)ccc1F (racemic)
yes (1)

In plain terms, does CC1=C(/C=C/C(=O)/C=C/c2cccc([N+](=O)[O-])c2)C(C)(C)CCC1 come in under 3 µM for IC50?
yes (1)

Consider the compound CC1=C(/C=C/C(=O)/C=C/c2cccc(C)c2)C(C)(C)CCC1O (racemic) . Is its IC50 strictly less than 3 µM?
no (0)

Dear reviewer, please state whether CC1=C(/C=C/C(=O)/C=C/c2cccc(C)c2)C(C)(C)CCC1 has IC50 strictly beneath 3 µM.
no (0)

hey, is IC50 for CC1=C(/C=C/C(=O)/C=C/c2cccc(C#N)c2)C(C)(C)CCC1O (racemic) lower than 3 µM or not?
yes (1)

is_below(IC50, 3 µM) for CC1=CCCC(C)(C)C1/C=C/C(=O)/C=C/c1cccc(C)c1 (racemic) ?
no (0)

---

# Tested on: C4-2B cells
# Test Protocol: MTT cell growth inhibition, C4-2B;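 note: cells treated with a dilution series for 72 h, then MTT added and absorbance read at 600 nm, IC50 fitted from dose-response curves by nonlinear regression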
# Condition Set: read-out: Cellular IC50 (μM) C4-2B, Table 9
Measure Name: log10 IC50 (log10 of the value in µM)
Kindly note that the scale is log10 and the underlying IC50 is in µM.

CC1(C)CCC(O)C=C1/C=C/C(=O)/C=C/c1cc2ccccc2s1 (centres unmarked)	1.00

Hi there! I need log10 IC50 for each item below, if you can.
1. CC1(C)CCC(O)C=C1/C=C/C(=O)/C=C/c1ccc2[nH]ccc2c1 (centres unmarked)
2. CC1(C)CCC(O)C=C1/C=C/C(=O)/C=C/c1ccc2c(c1)OCO2 (centres unmarked)
3. CC1(C)CCC(O)C=C1/C=C/C(=O)/C=C/c1ccc2c(c1)OCCO2 (centres unmarked)
4. CC1(C)CCC(O)C=C1/C=C/C(=O)/C=C/c1c[nH]c2ccc(Cl)cc12 (centres unmarked)

0.20
0.79
1.01
1.26

Batch request: log10 IC50 per item, same order as input.
1. CC1(C)CCC(O)C=C1/C=C/C(=O)/C=C/c1c(-c2ccccc2)[nH]c2ccccc12 (centres unmarked)
2. CC1(C)CCC(O)C=C1/C=C/C(=O)/C=C/c1csc2ccccc12 (centres unmarked)
3. Cc1cccc2c(/C=C/C(=O)/C=C/C3=CC(O)CCC3(C)C)c[nH]c12 (centres unmarked)

1: 0.34; 2: 0.04; 3: 0.56

Data origin, for the record: patent US8470889B2
